# System: Gaeumannomyces graminis
# procedure_text: Gaeumannomyces graminis / liquid culture (Take-all of cereals)
# Type: cell-based
# assay_setup: 96 h, liquid culture, 24° C., inhibition of growth determined photometrically 4-5 days after application, vs untreated control, read-out: disease control
What inhibition of growth at 200 ppm was measured for each of the following?

Some compounds with known inhibition of growth at 200 ppm results, for comparison:
# test_smiles, assay_value
records = [
    ("CC1(C)Cc2c(F)cccc2C(c2cnn3c(F)cc(Br)c3c2)=N1", "≥ 80%"),
    ("CC1(C)Cc2c(F)cccc2C(c2cnn3c(C#N)ccc3c2)=N1", "≥ 80%"),
    ("CC1(C)N=C(c2cnn3c(F)c(F)cc3c2)c2cccc(F)c2C1(C)C", "≥ 80%"),
    ("Cc1nn2c(Br)ccc2cc1C1=NC(C)(C)C(C)(C)c2c(F)cccc21", "≥ 80%"),
]

Kindly consider the entry below.
Form field inhibition of growth at 200 ppm, entry Cc1cc(F)n2ncc(C3=NC(C)(C)Cc4c(F)cccc43)cc12 : ≥ 80%

---

# Tested on: Gaeumannomyces graminis
# procedure_text: Gaeumannomyces graminis / liquid culture (Take-all of cereals)
# Assay type: cell-based
# assay_setup: 96 h, liquid culture, 24° C., inhibition of growth determined photometrically 4-5 days after application, vs untreated control, read-out: disease control
Would you kindly list inhibition of growth at 200 ppm for each of these compounds?

Return reported inhibition of growth at 200 ppm values for all items listed beneath this line.
1. C#CCOc1cccc2c1CC(C)(C)N=C2c1cnn2cccc2c1 [E 54]
2. CC1(C)Cc2c(F)cccc2C(c2cnn3cccc3c2)=N1 [E 3]
3. CC1(C)Cc2ccccc2C(c2cnn3c(F)ccc3c2)N1 (stereo not shown) [E 21]

# output
≥ 80%
≥ 80%
≥ 80%

The compound listed as CC1(C)N=C(c2cnn3cccc3c2)c2cccc(F)c2C1(C)C [E 1] shows inhibition of growth at 200 ppm equal to ≥ 80%
